The measured values listed here are drawn from ChEMBL document CHEMBL4387740.

test summary: Elimination half life in cynomolgus monkey at 3 mg/kg, po
Assay type: ADME, organism-based, Macaca fascicularis
condition details: in vivo, read-out: beta t1/2 (converted)
observed property: half-life (h)
# value in h; strip the unit string

Exam item: Quick one: give measured half-life for O=C(NC1CC1)C(=O)C(Cc1ccccc1)NC(=O)[C@H]1CCC(=O)N1Cc1ccccc1 (stereo partly specified)
Marked response: 1.3

----------
test summary: Volume of distribution at steady state in Sprague-Dawley rat at 2 mg/kg, iv
Type: ADME, organism-based
condition details: in vivo, read-out: Vdss
observed property: Vd (L/kg)
Expressed in L/kg, but write only the number.

Exam item: Input O=C(NC1CC1)C(=O)C(Cc1ccccc1)NC(=O)[C@H]1CCC(=O)N1Cc1ccccc1 (stereo partly specified) , output reported Vd.
Marked response: 3.4

----------
Overview of recorded Selectivity ratio for various molecules
Species on record: Homo sapiens
test summary: Selectivity ratio, ratio of Ki for CatB (unknown origin) to Ki for Cal1 (unknown origin)

NC(=O)C(=O)C(Cc1ccccc1)NC(=O)c1cccnc1-n1ccc(-c2ccc(F)cc2)n1 (stereo not drawn) :: 10
O=C(NCc1ccc(F)cc1)C(=O)C(Cc1ccccc1)NC(=O)[C@H]1CCC(=O)N1Cc1ccccc1 (stereo partly drawn) :: 104
NC(=O)C(=O)C(Cc1ccccc1)NC(=O)[C@H]1CCC(=O)N1Cc1cccc(C(F)(F)F)c1 (mixture of isomers) :: 15
O=C(NC1CC1)C(=O)C(Cc1ccccc1)NC(=O)[C@H]1CCC(=O)N1Cc1ccccc1OC(F)(F)F (stereo partly drawn) :: 22
CN1C[C@H](C(=O)NC(Cc2ccccc2)C(=O)C(N)=O)N(Cc2ccccc2)C1=O (mixture of isomers) :: 72
CC(C)(C)CN1C(=O)CC[C@@H]1C(=O)NC(Cc1ccccc1)C(=O)C(N)=O (mixture of isomers) :: 23

Exam item: # return recorded Selectivity ratio for input NC(=O)C(=O)C(Cc1ccccc1)NC(=O)c1cccc(=O)n1Cc1ccccc1 (stereo not drawn)
Marked response: 15

Exam item: Read off the recorded Selectivity ratio for NC(=O)C(=O)C(Cc1ccccc1)NC(=O)[C@H]1CCC(=O)N1Cc1ccccc1 (mixture of isomers)
Marked response: 23

----------
test summary: AUC (0 to infinity) in Beagle dog at 1 mg/kg, iv
Format: ADME, organism-based, Canis lupus familiaris
Parameters: dose 1 mg/kg, time infinity, route intravenous
condition details: in vivo
observed property: AUC(0-inf) (ng·h/mL)
Output spec: scalar in ng·h/mL, unitless text.

Exam item: Please report AUC(0-inf) for the following molecule: O=C(NC1CC1)C(=O)C(Cc1ccccc1)NC(=O)[C@H]1CCC(=O)N1Cc1ccccc1 (stereo partly specified)
Marked response: 1820

----------
test summary: Elimination half life in Beagle dog at 1 mg/kg, iv
Assay type: ADME, organism-based, Canis lupus familiaris
condition details: in vivo, read-out: beta t1/2 (converted)
observed property: half-life (h)
Report the value in h with no unit label.

Exam item: Give half-life for O=C(NC1CC1)C(=O)C(Cc1ccccc1)NC(=O)[C@H]1CCC(=O)N1Cc1ccccc1 (stereo partly specified)
Marked response: 1.7

----------
test summary: Volume of distribution at steady state in cynomolgus monkey at 1 mg/kg, iv
Type: ADME, organism-based, Macaca fascicularis
condition details: in vivo, read-out: Vdss
observed property: Vd (L/kg)
Dear colleague, please return just the value in L/kg, with no unit written.

Exam item: Consider the molecule O=C(NC1CC1)C(=O)C(Cc1ccccc1)NC(=O)[C@H]1CCC(=O)N1Cc1ccccc1 (stereo partly specified) and give its recorded Vd.
Marked response: 1.8
